Test system: U2OS
assay.details: Multiplex assay against U2OS
Assay type: toxicity, cell-based
test.context: human, 12 h, 1 µM, compound concentration 1 uM, replicate 1

compound	units.symbol	Population Pyknosed Nuclei (%)
CCCCCCNC(=O)Nc1ccc(S(=O)(=O)Nc2ccc(CCNC[C@H](O)COc3ccc(O)cc3)cc2)cc1	%	9
Cc1sc2c(c1C)C(c1ccc(Cl)cc1)=N[C@H](CC(=O)OC(C)(C)C)c1nnc(C)n1-2	%	8
CCCCC[C@H](O)/C=C/[C@H]1[C@H](O)CC(=O)[C@@H]1CCCCCCC(=O)O	%	6
O=C(O)CCC/C=C\CC1C(O)CC(O)C1/C=C/C(O)COc1cccc(Cl)c1 (configuration not stated)	%	9
CN1CCN(c2ccc(Nc3c4ccccc4nc4ccccc34)cc2)CC1.Cl.Cl.O	%	8
COCCCN1CCC(NC(=O)c2cc(Cl)c(N)c3c2OCC3)CC1 [PRUCALOPRIDE]	%	6
O=c1ccc2ccc(OCCCCN3CCN(c4cccc5sccc45)CC3)cc2[nH]1	%	13
C[C@@H]1CC(=O)Nc2cccc(-c3ccc4c(c3)c(-c3cnn(C)c3)nn4C)c2N1	%	6
Cc1cc(=O)n(C)c2cc(N3C(=O)CC[C@H](NS(=O)(=O)CC(C)C)[C@H]3c3ccc(Cl)cc3)ccc12	%	9
CN(C)C/C=C/C(=O)Nc1ccc(C(=O)N2CCCC(Nc3ncc(Cl)c(-c4c[nH]c5ccccc45)n3)C2)cc1 (configuration not stated)	%	8
Cc1cc(O)c(-c2ccc([C@@H](C)CN(C)C)cc2)c2c1[nH]c(=O)c1sccc12	%	12
Nc1nc(CC(=O)Nc2ccc(CCNC[C@H](O)c3ccccc3)cc2)cs1	%	12

* * *

// reported Population Apoptotic (%) per item
Tested on: HEK-293T
assay.details: Multiplex assay against HEK293T
Assay type: toxicity, cell-based
test.context: human, 48 h, 10 µM, compound concentration 10 uM, replicate 1
Non-standard residues stand in square brackets, D forms with d. Residues, ends and D or L forms follow the SMILES beside them.
endpoint: Population Apoptotic (%)

molecule	measured.target	endpoint	units.symbol	reported.value
CC(C)C[C@@H]1NC(=O)[C@@H](C(C)C)NC(=O)[C@@H]2CCCN2C(=O)[C@@H](CC(=O)O)NC(=O)[C@@H](Cc2c[nH]c3ccccc23)NC1=O [BQ-123] (cyclo(L[dW][dD]P[dV]))	HEK-293T	Population Apoptotic (%)	%	25
COCCCN1CCC(NC(=O)c2cc(Cl)c(N)c3c2OCC3)CC1 [PRUCALOPRIDE]	HEK-293T	Population Apoptotic (%)	%	20
C[C@H](NC(=O)CNC(=O)c1cccc(Cl)c1)c1ccccc1	HEK-293T	Population Apoptotic (%)	%	44
CCCCC[C@H](O)/C=C/[C@H]1[C@H](O)CC(=O)[C@@H]1CCCCCCC(=O)O	HEK-293T	Population Apoptotic (%)	%	25
O=c1nc2[nH]c3ccccc3nc-2c(=O)[nH]1	HEK-293T	Population Apoptotic (%)	%	29
CCCCCCNC(=O)Nc1ccc(S(=O)(=O)Nc2ccc(CCNC[C@H](O)COc3ccc(O)cc3)cc2)cc1	HEK-293T	Population Apoptotic (%)	%	46
CC(C)(O)C(=O)N1CCN(c2ccc(C(F)(F)F)c(C3=C(c4c[nH]c5ccccc45)C(=O)NC3=O)c2)CC1	HEK-293T	Population Apoptotic (%)	%	54
N[C@](CC1c2ccccc2Oc2ccccc21)(C(=O)O)[C@H]1C[C@@H]1C(=O)O	HEK-293T	Population Apoptotic (%)	%	28
C=CCN1C[C@H](C(=O)N(CCCN(C)C)C(=O)NCC)C[C@@H]2c3cccc4[nH]cc(c34)C[C@H]21	HEK-293T	Population Apoptotic (%)	%	26
CCn1c(-c2nc3cc(C(=O)N4CCCC(N)C4)ccc3n2C)cc2ccccc21.Cl (stereo unspecified)	HEK-293T	Population Apoptotic (%)	%	50
Cc1nn(C)c2nc(NNC(=O)Nc3cc(Cl)nc(Cl)c3)cc(C(C)C)c12	HEK-293T	Population Apoptotic (%)	%	62
Cc1cc(O)c(-c2ccc([C@@H](C)CN(C)C)cc2)c2c1[nH]c(=O)c1sccc12	HEK-293T	Population Apoptotic (%)	%	86
CN1C[C@H](C(=O)N[C@]2(C)O[C@@]3(O)[C@@H]4CCCN4C(=O)[C@H](Cc4ccccc4)N3C2=O)C[C@@H]2c3cccc4[nH]cc(c34)C[C@H]21.CS(=O)(=O)O [DIHYDROERGOTAMINE MESYLATE]	HEK-293T	Population Apoptotic (%)	%	22
CC(C)(C)c1ccc(CSc2cnn(C(C)(C)C)c(=O)c2Cl)cc1	HEK-293T	Population Apoptotic (%)	%	48
Cc1ccc(OCC(O)C(C)NC(C)C)c2c1CCC2.Cl (stereo unspecified)	HEK-293T	Population Apoptotic (%)	%	40
Cc1cc(=O)n(C)c2cc(N3C(=O)CC[C@H](NS(=O)(=O)CC(C)C)[C@H]3c3ccc(Cl)cc3)ccc12	HEK-293T	Population Apoptotic (%)	%	56
